# test.system: T1, human CD24 (human, UniProt P25063 27-59, heavily glycosylated, GPI-anchored (as described in the background))
# T1 construct: whole, on cells; Target of all cell-based FACS assays; also called hCD24; Cluster of differentiation 24
# T1 chain (looked up): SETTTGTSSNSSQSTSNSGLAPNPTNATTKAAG
# protocol.text: FACS, Nalm1 cells
experimental.readout: FACS MFI
Give the value as a plain number.

Before answering, review these 2 worked examples.
binder: 71A4F12 (antibody, V domains shown, mouse monoclonal antibody) VH: EVQLQQSGPELVKPGASVKIPCKASGYTFTAYNMDWVKQSHGMSLEWIGDINPNNGDTVYNQNFKGKATLTVDKSSSTAYMELRSLTSEDTAVYYCARRGSYYYGSSHYALDFWGQGTSVSVSS VL: DIQMTQITSSLSASLGNRVTISCRASQDIRNYLNWYQQKPDGTVKLLIYYTSRLLSGVPSRFSGSGSGTDYSLTISNLEQEDIATYFCQQDNSLPRTFGGGTRLEIR
FACS MFI: 45000

binder: 81A1F8 (antibody, V domains shown, mouse monoclonal antibody) VH: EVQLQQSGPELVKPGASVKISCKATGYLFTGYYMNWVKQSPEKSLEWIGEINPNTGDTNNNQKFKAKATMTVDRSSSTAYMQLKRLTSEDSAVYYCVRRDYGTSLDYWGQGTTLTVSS VL: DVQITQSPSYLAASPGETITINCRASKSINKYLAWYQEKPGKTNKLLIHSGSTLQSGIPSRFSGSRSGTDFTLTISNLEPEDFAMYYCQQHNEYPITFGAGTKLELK
FACS MFI: 24800

Determine its reported FACS MFI: SN3 (antibody, V domains shown) VH: QVQLKESGPGLVAPSQSLSITCTVSGFSLTSYGVHWVRQPPGKGLEWLGVIWAGGSTNYNSALMSRLSISKDNSKSQVFLKMNSLQTDDTAMYYCAVYYGYLFFAYWGQGTLVTVSA VL: ENVLTQSPAIMSASPGEKVTMTCSASSSVSYMHWYQQKSTTSPKLWIYDTSKLASGVPGRFSGSGSGNSYSLTISSMEAEDVATYYCFQGSGYPLTFGGGTKLEIK
11800

Determine its reported FACS MFI: 73H5-1G2 (antibody, V domains shown, mouse monoclonal antibody) VH: QVQLKQSGPGLVQPSQSLSITCTVSGFSLTNYGVHWIRQSPGKGLEWLGVIWRGGSTDYNAAFMSRLSITKDNSKSQVFFQMNSLQAADTAIYYCANNYGYDCFAYWGQGTLVTVSA VL: DVQITQSPSYLAASPGETITINCRASKSIIKYLAWYQEKPGKTNKLLIYSGSTLQSGIPSRFSGSGSGTDFTLTITSLEPEDFAMYYCQQHNEYPLTFGAGTRLELK
58500

Determine its reported FACS MFI: 56A7E3 (antibody, V domains shown, mouse monoclonal antibody) VH: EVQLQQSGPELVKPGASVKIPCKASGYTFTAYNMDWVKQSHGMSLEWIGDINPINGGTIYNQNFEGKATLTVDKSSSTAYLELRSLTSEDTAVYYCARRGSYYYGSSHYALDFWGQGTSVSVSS VL: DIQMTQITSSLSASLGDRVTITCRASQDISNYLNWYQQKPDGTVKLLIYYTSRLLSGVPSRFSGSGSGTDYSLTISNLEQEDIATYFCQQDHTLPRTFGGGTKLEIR
74600

Determine its reported FACS MFI: 100F2E3 (antibody, V domains shown, mouse monoclonal antibody) VH: QVQLQQPGAELVRPGSSVKLSCKTSDYTFTSYWMDWVKQRPGQGLEWIGNIYPSDSKTHSNQKFRDKATLTVDKSSSTAYMQLNSLTSEDSAVYYCARRGGYYGYAMDYWGQGTSVTVSS VL: DIVMTQSPSSLSVSAGEKVTMSCKSSQSLLNSGNQDNYLAWYQQKPGQPPKLLIYGASIRESGVPDRFTGSGSGTDFTLTISSVQAEDLAVYYCQNDHSYPYTFGGGTKLEIK
58800
